Each entry below carries its recorded furin cleavage Z-score.
Target: furin, P09958;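 further: purified furin at 1:10 enzyme:substrate in 50 mM HEPES pH 7.5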
Sequence (P09958 whole entry): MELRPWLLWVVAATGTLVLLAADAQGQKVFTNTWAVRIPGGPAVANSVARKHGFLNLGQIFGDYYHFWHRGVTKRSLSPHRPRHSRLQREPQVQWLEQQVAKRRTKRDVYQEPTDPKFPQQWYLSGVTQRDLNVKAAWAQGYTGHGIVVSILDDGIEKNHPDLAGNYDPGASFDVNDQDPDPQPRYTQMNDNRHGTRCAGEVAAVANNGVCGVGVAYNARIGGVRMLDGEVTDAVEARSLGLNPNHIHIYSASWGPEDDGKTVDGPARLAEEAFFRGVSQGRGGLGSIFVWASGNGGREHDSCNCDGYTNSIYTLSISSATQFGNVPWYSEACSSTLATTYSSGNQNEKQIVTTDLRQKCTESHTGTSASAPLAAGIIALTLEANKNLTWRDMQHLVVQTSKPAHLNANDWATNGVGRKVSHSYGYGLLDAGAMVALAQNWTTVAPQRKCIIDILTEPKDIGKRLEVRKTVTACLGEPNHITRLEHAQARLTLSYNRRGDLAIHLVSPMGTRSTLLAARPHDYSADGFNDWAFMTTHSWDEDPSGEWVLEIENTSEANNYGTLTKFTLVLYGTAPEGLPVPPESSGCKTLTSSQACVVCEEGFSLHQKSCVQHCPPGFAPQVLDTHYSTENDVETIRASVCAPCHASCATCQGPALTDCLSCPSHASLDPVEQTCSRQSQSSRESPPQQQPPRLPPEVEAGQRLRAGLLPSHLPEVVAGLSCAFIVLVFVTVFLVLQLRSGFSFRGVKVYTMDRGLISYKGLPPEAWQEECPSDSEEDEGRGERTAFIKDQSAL
Test: furin cleavage Z-score vs untreated control; higher = more cleavage, active = 3.5 or more, inactive = 1 or less, 8 variable residues between constant flanks
Conditions: 7.5 min
This is one part of the list. The hit rate among all sequences tested is not known here.
Enter the number alone.

CAYMSKAHGIAGNASASA [HC794]; -0.614
CAAGKRVYYLAGNASASA [HC1559]; -0.901

Return furin cleavage Z-score (reported value) for this sequence: CARYCRGVSAAGNASASA [FS-1941]
-0.864

Return furin cleavage Z-score (reported value) for this sequence: CARYRRLTGDAGNASASA [FS-1843]
-1.17

Return furin cleavage Z-score (reported value) for this sequence: CARYRRCVGWAGNASASA [FS-2389]
3.27

Return furin cleavage Z-score (reported value) for this sequence: CALVFFCFAWAGNASASA [HC545]
-0.625

The reported numbers originate from the supplement of paper PMC3545927.
